system: male and female mice; test: Determination of acute toxicity, oral administration; format: in vivo; conditions: 1 000 mgm/kg oral, 10 mice, within 14 days
# maps each entry to its Dead animals within observation period 14 days
observation_type: Dead animals within observation period 14 days

[
  {
    "chemical_smiles": "Cc1cccc(NC(=O)C2=C(O)c3c(c4ccccc4n3C)S(=O)(=O)N2C)n1",
    "value_observed": 0
  },
  {
    "chemical_smiles": "CN1C(C(=O)Nc2nccs2)=C(O)c2c(c3ccccc3n2C)S1(=O)=O",
    "value_observed": 0
  },
  {
    "chemical_smiles": "CN1C(C(=O)Nc2nccs2)=C(O)c2c(c3cc(Cl)ccc3n2C)S1(=O)=O",
    "value_observed": 0
  },
  {
    "chemical_smiles": "Cc1csc(NC(=O)C2=C(O)c3c(c4ccccc4n3C)S(=O)(=O)N2C)n1",
    "value_observed": 0
  }
]

###

system: male and female mice; assay: Determination of acute toxicity, oral administration; assay type: in vivo; conditions: 1 000 mgm/kg oral, 10 mice, within 1 day
Recorded Dead animals within observation period 1 day for the following molecules
observation_type: Dead animals within observation period 1 day

[
  {
    "chemical_smiles": "Cc1cccc(NC(=O)C2=C(O)c3c(c4ccccc4n3C)S(=O)(=O)N2C)n1",
    "value_observed": 0
  },
  {
    "chemical_smiles": "CN1C(C(=O)Nc2nccs2)=C(O)c2c(c3ccccc3n2C)S1(=O)=O",
    "value_observed": 0
  },
  {
    "chemical_smiles": "Cc1csc(NC(=O)C2=C(O)c3c(c4ccccc4n3C)S(=O)(=O)N2C)n1",
    "value_observed": 0
  },
  {
    "chemical_smiles": "CN1C(C(=O)Nc2nccs2)=C(O)c2c(c3cc(Cl)ccc3n2C)S1(=O)=O",
    "value_observed": 0
  }
]
